Data provenance is ChEMBL document CHEMBL1129962.

# subject.of.test: Prostaglandin G/H synthase 2 (Homo sapiens)
# Sequence (whole entry): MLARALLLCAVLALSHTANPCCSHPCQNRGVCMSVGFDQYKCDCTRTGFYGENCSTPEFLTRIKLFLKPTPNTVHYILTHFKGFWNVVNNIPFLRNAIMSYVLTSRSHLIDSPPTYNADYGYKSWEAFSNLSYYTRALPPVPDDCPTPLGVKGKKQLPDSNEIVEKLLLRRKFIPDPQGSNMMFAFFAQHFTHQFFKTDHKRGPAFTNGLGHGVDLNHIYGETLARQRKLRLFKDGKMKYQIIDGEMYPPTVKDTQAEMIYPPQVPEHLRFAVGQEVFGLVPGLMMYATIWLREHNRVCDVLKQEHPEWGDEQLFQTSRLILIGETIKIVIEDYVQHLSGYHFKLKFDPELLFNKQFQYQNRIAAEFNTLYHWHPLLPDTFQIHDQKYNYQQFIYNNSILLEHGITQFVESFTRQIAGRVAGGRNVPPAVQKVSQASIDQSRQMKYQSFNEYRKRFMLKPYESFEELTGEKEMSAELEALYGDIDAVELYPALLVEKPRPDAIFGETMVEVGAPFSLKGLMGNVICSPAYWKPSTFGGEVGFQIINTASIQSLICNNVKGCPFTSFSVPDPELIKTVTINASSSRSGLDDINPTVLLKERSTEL
# test.details: Inhibition activity against recombinant human Prostaglandin G/H synthase 2
# Parameters: concentration or dose not given beside the values
# cond: concentration not given here
endpoint.name: inhibition (%)

# count of solved cases: 3
>  <molecule>
CC(c1cc2ccccc2s1)N(O)C(N)=O (configuration not stated)

>  <subject.of.test>
Prostaglandin G/H synthase 2 (Homo sapiens)

>  <endpoint.name>
inhibition

>  <observed>
0

$$$$
>  <molecule>
COc1ccc2cc([C@H](C)N(O)C(N)=O)ccc2c1

>  <subject.of.test>
Prostaglandin G/H synthase 2 (Homo sapiens)

>  <endpoint.name>
inhibition

>  <observed>
0

$$$$
>  <molecule>
CC(C)Cc1ccc(C(C)NC(=O)NO)cc1 (configuration not stated)

>  <subject.of.test>
Prostaglandin G/H synthase 2 (Homo sapiens)

>  <endpoint.name>
inhibition

>  <observed>
0

$$$$

(I) COc1ccc2c(c1)c(CCN(O)C(N)=O)c(C)n2C(=O)c1ccc(Cl)cc1
(II) CC(C)Cc1ccc(C(C)N(O)C(N)=O)cc1 (configuration not stated)
(III) COc1ccc2cc([C@H](C)NC(=O)NO)ccc2c1
(IV) COc1ccc2c(c1)c(CNC(=O)N(C)O)c(C)n2C(=O)c1ccc(Cl)cc1
List from greatest to least inhibition. Give the labels in the order specified.
IV, I, III, II
(IV: 88%, I: 48%, III: 2%, II: 0%)

###

# subject.of.test: Polyunsaturated fatty acid 5-lipoxygenase (Rattus norvegicus, UniProt P12527)
# Sequence (P12527 whole entry): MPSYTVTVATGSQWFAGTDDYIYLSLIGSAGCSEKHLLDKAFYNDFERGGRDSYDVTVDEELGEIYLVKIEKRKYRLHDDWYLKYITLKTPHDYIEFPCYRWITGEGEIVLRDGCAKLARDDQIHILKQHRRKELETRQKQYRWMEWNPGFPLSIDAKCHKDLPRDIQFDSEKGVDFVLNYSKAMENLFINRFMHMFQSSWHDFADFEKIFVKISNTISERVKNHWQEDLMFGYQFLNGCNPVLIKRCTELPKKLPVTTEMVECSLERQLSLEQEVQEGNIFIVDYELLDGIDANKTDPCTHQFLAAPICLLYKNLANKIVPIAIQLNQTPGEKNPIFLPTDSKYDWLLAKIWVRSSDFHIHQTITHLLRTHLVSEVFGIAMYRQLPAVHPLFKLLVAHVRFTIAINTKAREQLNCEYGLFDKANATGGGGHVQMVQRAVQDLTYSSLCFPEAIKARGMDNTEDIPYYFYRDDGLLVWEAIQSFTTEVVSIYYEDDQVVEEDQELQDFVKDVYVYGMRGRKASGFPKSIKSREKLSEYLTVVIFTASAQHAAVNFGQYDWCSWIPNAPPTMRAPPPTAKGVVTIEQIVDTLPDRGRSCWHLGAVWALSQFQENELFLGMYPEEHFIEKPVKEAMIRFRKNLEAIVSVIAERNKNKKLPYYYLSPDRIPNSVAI
# test.details: Inhibitory activity against 5-lipoxygenase catalysis (5-LO) in sonicated rat basophilic leukemia cell lysate
pIC50: −log10 of the molar value.
endpoint.name: pIC50

>  <molecule>
CC(C)Cc1ccc(C(C)N(O)C(N)=O)cc1 (stereo not drawn)

>  <subject.of.test>
Polyunsaturated fatty acid 5-lipoxygenase (Rattus norvegicus, UniProt P12527)

>  <observed>
6.22

$$$$

(P) COc1ccc2c(c1)c(CNC(=O)N(C)O)c(C)n2C(=O)c1ccc(Cl)cc1
(Q) COc1ccc2cc([C@H](C)N(O)C(N)=O)ccc2c1
When their pIC50 values are compared, which is larger, P or Q ? When you have decided, please share the label of that item.
P
